The values you see were collected from paper PMC7884015.

assay: in vivo; details: dissected bees N = 6, day 5; ± SD
Please go through the items and note down their Gut (ng/bee).
One number for each entry, in ng/bee.

// solved cases for Gut (ng/bee) follow
{"compound": "C=C[C@]12CN(C)[C@@H]3[C@H]4CO[C@H](C[C@H]41)[C@]1(C(=O)Nc4ccccc41)[C@@H]32", "val": 106}
{"compound": "CC(C)[C@]12O[C@H]1[C@@H]1O[C@]13[C@]1(O[C@H]1C[C@H]1C4=C(CC[C@@]13C)C(=O)OC4)[C@@H]2O [triptolide, Triptolide]", "val": 0.6}
{"compound": "CN1[C@@H]2CC[C@H]1C[C@@H](OC(=O)C(CO)c1ccccc1)C2 (stereo partly drawn) [atropine, Atropine, reference compound]", "val": 90}

Fill in Gut (ng/bee) for each of the 3 compounds listed.
1. N#C[C@H](O[C@@H]1O[C@H](CO[C@@H]2O[C@H](CO)[C@@H](O)[C@H](O)[C@H]2O)[C@@H](O)[C@H](O)[C@H]1O)c1ccccc1
2. C/C=C1/C[C@@H](C)[C@@](C)(O)C(=O)OC/C2=C/CN(C)CC[C@@H](OC1=O)C2=O
3. CCN1C[C@]2(COC(=O)c3ccccc3N3C(=O)C[C@H](C)C3=O)CC[C@H](OC)[C@@]34[C@@H]5C[C@H]6[C@H](OC)[C@@H]5[C@](O)(C[C@@H]6OC)[C@@](O)([C@@H](OC)[C@H]23)[C@@H]14

Completion:
78
2.3
0.05

---

assay: in vivo; settings: in vivo, po, oral bioavailability (%), percentage of the total ingested quantity over the 5-day feeding period recovered in the bees without guts; ± SD; dissected bees N = 6
endpoint.label: bioavailability at 5 day (%)
Give bare numbers, in %.

Prompt: Let me know recorded bioavailability at 5 day for `C=C[C@]12CN(C)[C@@H]3[C@H]4CO[C@H](C[C@H]41)[C@]1(C(=O)Nc4ccccc41)[C@@H]32` , thanks.
Completion: 6

---

assay: in vivo; details: honey bee (Apis mellifera), in vivo, po, oral bioavailability (%)
endpoint.label: bioavailability

Prompt: Let me know recorded bioavailability for C/C=C1/C[C@@H](C)[C@@](C)(O)C(=O)OCC2=CCN3CC[C@@H](OC1=O)[C@@H]23 [senecionine, Senecionine] , thanks.
Completion: < 10%

---

For each of the molecules below, state its bioavailability.
Assay: in vivo
Conditions: in vivo, po, oral bioavailability (%), percentage of the total ingested quantity over the 5-day feeding period recovered in the bees without guts; ± SD; dissected bees N = 6
Source text: Honey bees (A. mellifera L) were collected from brood frames in the apiary of Aarhus University, Flakkebjerg. The collected bees were fed on 50% sucrose for 3 days. […] The exact numbers of bees in the individual cages were counted at the end of the experiment. […] Dead bees were counted and removed daily. […] In the individual dissected bees (N = 6), the sum of the quantities recovered in the guts and the bees without guts designates the total quantity of compound recovered in that individual.
Give bare numbers, in %.

Answered cases to consult:
{"molecule": "C/C=C1/C[C@@H](C)[C@@](C)(O)C(=O)OC/C2=C/CN(C)CC[C@@H](OC1=O)C2=O", "unit.label": "%", "val": 9}
{"molecule": "N#C[C@H](O[C@@H]1O[C@H](CO[C@@H]2O[C@H](CO)[C@@H](O)[C@H](O)[C@H]2O)[C@@H](O)[C@H](O)[C@H]1O)c1ccccc1", "unit.label": "%", "val": 31}
{"molecule": "OCC1=C[C@@H](O)[C@@H]2C=CO[C@@H](O[C@@H]3O[C@H](CO)[C@@H](O)[C@H](O)[C@H]3O)[C@H]12", "unit.label": "%", "val": 13.1}

For the next question, use this molecule.
Prompt: Report bioavailability, nothing else, for this molecule: CC(C)[C@]12O[C@H]1[C@@H]1O[C@]13[C@]1(O[C@H]1C[C@H]1C4=C(CC[C@@]13C)C(=O)OC4)[C@@H]2O [triptolide, Triptolide]
Completion: 21
